assay: yeast display, Sf9 membrane polyspecificity reagent, FACS + sequencing; frameworks hold sequencing errors

{"columns": ["sequence.string", "polyreactivity (PSR sort gate)"],
 "data": [
  ["QVQLVESGGGLVQAGGSLRLSCAASGSIFNRNVMGWYRQAPGKERELVAAITWSGASTYYADSVKGRFTISRDNAKNTVYLQMNSLKPEDTAVYYCAATQYYRGYDYWGQGTQVTVSS", "high polyreactivity"],
  ["QVQLQESGGGLVQAGGSQRLSCAASGSISILQSMRWYRQAPGKERELVAGINWGATTYYADSVKGRLTSCRDYAKNTVYLEMNSLNPEDTAVYYCAVPTYYTYPLLYWGQGTQVTVSS", "low polyreactivity"],
  ["QVQLVESAGGLVQAAASLRLSCADSGITFVVYTMGWYRQAPGKERELVASISISGDSTNYADSVKGRFTISRDNAKNTVYLQMNSLKPEDTAVYYCNAAFYHFQFPWIAYDYWGQGTQVTVSS", "low polyreactivity"],
  ["QVQLVESGGGLVQAGGSLRLSCAASGFIFSTYAMGWYRQAPGKERELVAAITNSGGSTYYADSVKGRFTISRDNAKNTVYLQMNSLKPEDTAVYYCARRRSYRDNYWGQGTQVTVSS", "high polyreactivity"],
  ["QVQLVESGGGLVQAGGSLRLSCAASGSIFYTYAKGWYRQAPGKQRELVAGISWSGSDTYYADSVKGRFTISRDNAKNTVYLQMNSLKPEDTAVYYCNAETSTRKNFGYDYWGQGTQVTVSS", "low polyreactivity"]
]}

----------
assay: yeast display, Sf9 membrane polyspecificity reagent, FACS + sequencing; frameworks hold sequencing errors
parameter.measured: polyreactivity (PSR sort gate)

{"columns": ["sequence.string", "parameter.measured", "measured"],
 "data": [
  ["QVQIVESGGGLVQAAGSLRLTFAASGIIFYIYPMGWYRPAPGKERELVASISFSGTSTYYADSVKGRFTISRDNAKNTVYIQMHSLKPEDTAVYYCAAGARWRRALAVKPYQKYGYWGQGTQVTVSS", "polyreactivity (PSR sort gate)", "low polyreactivity"],
  ["QVQLVESGVGLVQAGGSLRLSCAASGSTILQNAMGWYRQAPGKERELVAAISRSGGSTYYADSVKGRFTISRDNAKNTVYLQMNSLKPEDTAVYYCAAGGRRYDDDYWGQGTQVTVSS", "polyreactivity (PSR sort gate)", "high polyreactivity"],
  ["QVQLVESGGGLVQAGGSLRLSCAASGSIFDSNAMGWYRQAPGKERELVADIRGIGGSTYYADSVKGRFTISRDNAKNTVYLQMNSLKPEDTAVYYCNTSTLGGYYWGQGTQVTVSS", "polyreactivity (PSR sort gate)", "low polyreactivity"],
  ["QVQLVESGGGLVQAGGSLRLSCAASGITFITYAMGWYRQAPGKERELVAAISIRGGSTYYADSVKGRFTISRDNAKNTVYLQMNSLKPEDTAVYYCAKDNRSYTYDYWGQGTQVTVSS", "polyreactivity (PSR sort gate)", "low polyreactivity"],
  ["QVQLVESGGGLVQAGGSLRLSCAASGGTVYRNAMGWYRQAPGKERELVAAITRSGSTNYADSVKGRFTISRDNAKNTVYLQMNSLKPEDTAVYYCAAKFFRNTYSYGMDYWGQGTQVTVSS", "polyreactivity (PSR sort gate)", "high polyreactivity"]
]}

----------
assay: yeast display, Sf9 membrane polyspecificity reagent, FACS + sequencing; frameworks hold sequencing errors

{"columns": ["sequence.string", "polyreactivity (PSR sort gate)"],
 "data": [
  ["QVQHVESGGGLVQAGGSLRLSCASSGITFPDYSMGWYRQAPGKERELVAGISSTGDSTYYADSVKGRFTISRDNGKKTVYLQMNSLKPEDTAVYYCNAAQERPIIILFSKYDYWGQGTQVTVSS", "low polyreactivity"],
  ["QVQLVESGGGLVQAGGSLRLSCAASGSIFLIYAMGWYRQAPGKERELVAAIDWGGGANTYYADSVKGRFTISRDNAKNTVYLQMNSLKPEDTAVYYCAVDSYTSGYEYWGQGTQVTVSS", "low polyreactivity"],
  ["QVQLVESGGGLVQAGGSLRLSCAASGFTFYRYAMGWYRQAPGKERELVAAITRTGGSTYYADSVKGRFTISRDIAKNTVYLQMISLKPEDTAVYYCAARVHGTGTLKYPNYYWGQGTQVTVSS", "high polyreactivity"],
  ["QVQLVESGGGLVQAGGSLRLSCAASGITFSRNAMGWYRQAPGKERELVAVISTRGGRTYYADSVKGRFTISRDNAKNTVYLQMNSLKPEDTAVYYCAARSTYYRQQRGYDYWGQGTQVTVSS", "high polyreactivity"],
  ["QVQLVESGGGLVQPGGSLRLSCAASGSIFRVYAMGWYRQAPGKERELVAAISRGGNTNYADSVKGRFTISRDNAKNTVYLQKNSLKPEDTAVYYCNARYYSWDWWIGYDYWGQGTLVTVSS", "high polyreactivity"],
  ["QVQLVESGGGLVQAGGSLRLSCDASGRIFVYYAMGWYRQAPGKERELVAAINSGGTTKYADSVKGRFTISRDNAKNTVYLQMNSLKPEDTAVYYCAAEPLTPSRDRVPYEYYYWGQGTQVTVSS", "high polyreactivity"],
  ["QVQLVESGGGLDLAGGSLRLSCAASGRTFLYYAMGWYRQAPWKDREFVASIRRGGGSTYYADSVKGRFTFSRDNAKHTVYLQMHSLKPVDTAVYYCAAQPYTLSLFRLNYDYWGQGTQVTVSS", "low polyreactivity"],
  ["QVQLVESGGGLVQAGGSLRLSCAASGRIFRRSALGWSRQAPGKEREFVAAISSGGSTYYADSVKGRFTISRDNAKKYRLFTDEQPETGRYRGLLLRCVRYDVNLYDYWGHGTQVTVSS", "low polyreactivity"],
  ["QVQLVESGGALVQAGGSLRLSCAASGSTFPTNAMGWYRQAPGKERELVAAITSSTGSTYYADSVKGRFTISRDNAKNTVYLQMNSLKPEDTAVYSCAKSKQWQRYLRGNYWGQGTQVTVSS", "low polyreactivity"],
  ["QVQLVESGGGLVQAGGSLRLSCAASGRIFYFYAMGWYRQAPGKERELVAAISTSGGSTYYADSVKGRFTISRDNAKNTVYLQMNRLKPEDTAVYYCASRFRYYGSEYDYWGQGTQVTVSS", "low polyreactivity"],
  ["QVQHVESGGGLVQAGGSLRLSCAASGIILRSNAMGWYRQAPGKERELVAAINYSGGRTYYADSVKGRFTISRDTAKNTVYLQMNSLKPEDTAVYYCAAGGYPYGLSRVKLYYWGQGTQVTVSS", "high polyreactivity"]
]}

----------
assay: yeast display, Sf9 membrane polyspecificity reagent, FACS + sequencing; frameworks hold sequencing errors
parameter.measured: polyreactivity (PSR sort gate)

{"columns": ["sequence.string", "parameter.measured", "measured"],
 "data": [
  ["QVQLVESGGGLVQAGGSLRLSCAASGTTFRLYAMGWSIQAPGKERELVAAISRSGRTNYADSVKGSFTISRDNAKNTVYLQLNSLKPEDTAVYYCATVPGKCGDYWGQGTQVTVSS", "polyreactivity (PSR sort gate)", "high polyreactivity"],
  ["QVQLVESGGGLVQAGGSLRLSCAASGFIFRVYAMGWYRQAPGKERELVAAITRAGNTYYADSVKGRFTISRDNAKNTVYLQMNSLKPEDTAVYYCNNYHYWASPMNYWGQGTQVTVSS", "polyreactivity (PSR sort gate)", "high polyreactivity"],
  ["QVQLVESGGGLVQAGGSLRLSSADSGRIFYRYMVWYRHAPGKERELVAAISGRATRTYYADSVKGRFTISRDNAKKTVYLQMNSLKPEDTAVYYCAKRSYHGGDYWGQGTQVTVSS", "polyreactivity (PSR sort gate)", "high polyreactivity"],
  ["HVQLVESGGGVVQAGGSLRLSCAASGIIFYYYTMGWYRHAPGKQRELVAAISTSGGRTYYADSVKGRFTISRDTAKNTVYLQMNSLKPEDTAVYYCNARSRHTTLDYWGQGTQVTVSS", "polyreactivity (PSR sort gate)", "high polyreactivity"],
  ["QVQLVESGGGLVQAGGSLRLSCAASGLTFVFYAMGWYRQAPGKERELVAAISSSGGSTNYADSVKGRFTISRDNAKNTVYLQMNSLKPEDTAVYYCNARGRSGGGRYDYWGQGTQVTVSS", "polyreactivity (PSR sort gate)", "high polyreactivity"],
  ["QVQLVESGGGLVQAGGSLRLSCAASGLIFPRYTMGWYRQAPGKERELVAAIRGTGGSTYYADSVKGRFTISRDNPKNTVYLQLNSLKPEDTAVYYCATRGKSHGQQFNYWGQGTQVTVSS", "polyreactivity (PSR sort gate)", "high polyreactivity"],
  ["HVQLVESGGGLVQAGGSLRLSCAAWSIFYLNAMGWYRQAPGKERELVAAISSAGSTYYADSVKGRFTISRDNAKNTVYLQMNSLKPEDTAVYYCAAYWYDSPGVTEIWYDYWGQGTQVTVSS", "polyreactivity (PSR sort gate)", "low polyreactivity"],
  ["QVQLVESGGRLDQARGSLRLSCAASGYNFQPYAMGWYRLAPGKERDLVAAISWRGGSTYYADSVKGRFTISRDNAKNTVYLQMTSLKPEDTAVYYCAKDYYYGLEHYGYWGQGTQVTVSS", "polyreactivity (PSR sort gate)", "low polyreactivity"],
  ["QVQLVESGGGLVQAGGSLRLSCAASGFIFDFYTMGWYRQAPGKERELVAAITNAGSTYYADSVKGRFTISRDNAMNTFYLHMNSLKPEDTAVYYCAAYYRSRHHGYDSWGQGTQVTVSS", "polyreactivity (PSR sort gate)", "low polyreactivity"],
  ["QVQLVESGGGLVQAGGSLRLSCAASGFIFVRNTRGWYRQAPGKERELVATITRRGGSTSYADSVKGRFTISRDNAKNTVYLQMNSLKPEDTAVYYCNARSVYGSKQEEYWGQGTQVTVSS", "polyreactivity (PSR sort gate)", "high polyreactivity"],
  ["QVKLVESGGGLVQAGGSLRLSCAASGFTFSRNTMGWYRQAPGKERELVATISFRGGTTYYADSVKGRFTISRDNAKNTVYLQMNSLKPEDTAVYYCAVKVGFVRLLYHYYYWGQGTQVTVSS", "polyreactivity (PSR sort gate)", "high polyreactivity"],
  ["QVQLVESGGGLVQAGGSLRLSCAASGRIFNANAMGWYRHAPGKERELVAAISSSGGSTYYADSVKGRFTISRDNAKNTVYLQMNSLNPEDTAVYYCNADWGWRYSSDFDYWGQGTQVTVSS", "polyreactivity (PSR sort gate)", "low polyreactivity"],
  ["QVQLVESGGGLVQAGGSLRLSCAASGSIFTRYAMGWYRQAPGKERELVAVISVSGGRTYYADSVKGRFTISRDNAKNTVYLQMNSLKPEDTAVYYCAVGVLYAGYFYRYRYYYWGQGTQVTVSS", "polyreactivity (PSR sort gate)", "high polyreactivity"],
  ["QVQLVESGGGLVQAGGSLRLSCAASGSTFYNNAMGWYRQAPGKERELVATISASSTSTYYADSVKGRFTISRDNAKNTVYLQMNSLKPEDTAVYYCAKDYVHGSTYGYYWYGYDYWAQGTQVTVSS", "polyreactivity (PSR sort gate)", "low polyreactivity"],
  ["QVQLVESGGGLVQAGGSLRLSCADSGFTYAYYVMGWYRQAPGKERELVAAISISGGRTYYADSVKGRFTISRDNAKNTVYLQMNSLKPEDTAVYYCAADRRTDGHDYWGQGTQVTVSS", "polyreactivity (PSR sort gate)", "high polyreactivity"],
  ["QVQLVESGGGLVQAGGSLRLTCAASGRTFWTNAMGWYRQAPGKVRELVAAIRNSGGRTYYADSVKGRFTISRDNAKNTVYLQMNSLKPEDTAVYYCNADFWYSYGYDYWGQGTQVTVSS", "polyreactivity (PSR sort gate)", "low polyreactivity"],
  ["QVQLVESGGGLVQAGGSLRLSCAASGRIFLIYAMGWYRQAPGKDRELVAAISGRGGGTTYYADSVKGRFTISRDNAKITVYLQMNSLKPEATAVYYCAARNGGHKYYYWGQGTQVTVSS", "polyreactivity (PSR sort gate)", "high polyreactivity"],
  ["QVQLVESGGGLVQAGGSLRLSCAPSGSTFYVNAMGWYRQAPGKEREFVAAITWNSGSTYYADSVKGRFTISRDNAKNTVYLQMNSLKPEDTAVYYCAADGYHYVTYLVSYGYWGQGTQVTVSS", "polyreactivity (PSR sort gate)", "low polyreactivity"],
  ["QVQLVESGGGLVQAGGSLRLSCAASGRIFSHTVMGWYRQAPGKEGELVADISSSGGSTYYADSVKWRFTISRDNAKNTVDFQKNSLKPEYTAVYYCAAAPWASGTDEYWGHGTQVTVSS", "polyreactivity (PSR sort gate)", "low polyreactivity"],
  ["QVQLVESGGGLVQAGGTLRLSCAASGRIFPAYVMGWYRQAPGKERELVATIDNGGGTYYADSVKGRFTISRDNAKNTVYLQMNSLKPEDTAVYYCARDRHVRWGLKMDYWGQGTQVTVSS", "polyreactivity (PSR sort gate)", "low polyreactivity"],
  ["QVQLVESGGGLVQAGGSLRLSCAASGSTFYTYTMGWYRQAPGKERELVAAISSSGGDTYYADSVKGRFTISRDNAKNTVYLQMNSLKPEDSAVYYCAALGAFPSLEFDYWGQGTQVTVSS", "polyreactivity (PSR sort gate)", "low polyreactivity"]
]}
